Result Type: IC50 (µM)
Please give a number only; it is taken to be in µM.

[in] So what IC50 did `COc1cc(/C=C2\C(=O)NN(c3ccc(Br)cc3)C2=O)cc(Br)c1OC(C)=O` get with ERO1-like protein alpha (Homo sapiens, UniProt Q96HE7)?
[out] 3

[in] So what IC50 did `O=C1NC(=O)N(c2ccc(Cl)cc2)C(=O)/C1=C/c1ccc(O)c(O)c1` get with ERO1-like protein alpha (Homo sapiens, UniProt Q96HE7)?
[out] 11

[in] So what IC50 did `COc1ccc(N2C(=O)NC(=O)/C(=C\c3ccc(OCCOc4cccc(OC)c4)c(OC)c3)C2=O)cc1` get with ERO1-like protein alpha (Homo sapiens, UniProt Q96HE7)?
[out] 24
